- protocol-summary: Pharmacokinetics in Sprague-Dawley rats
- Format: in vivo
- condition: male, Sprague-Dawley, rat, plasma, intraperitoneal, 20 mg/kg, Supplementary Figure 7 panel c; 1 h; animals 1-3; read-out: Plasma Concentraion
measured-quantity: concentration at 1 h (ng/mL)
The reply should be a number in ng/mL, with the unit left off.

Consider the compound CC(C)C(=O)Nc1nc2cc(-c3ccc4c(c3)c(C(=O)NC(C)c3ccccc3)cn4C)ccn2n1 (stereo not shown) and give its measured concentration at 1 h.
3080

---

- assay-system: MLK1 (Homo sapiens, UniProt P80192)
- Sequence (P80192 whole entry): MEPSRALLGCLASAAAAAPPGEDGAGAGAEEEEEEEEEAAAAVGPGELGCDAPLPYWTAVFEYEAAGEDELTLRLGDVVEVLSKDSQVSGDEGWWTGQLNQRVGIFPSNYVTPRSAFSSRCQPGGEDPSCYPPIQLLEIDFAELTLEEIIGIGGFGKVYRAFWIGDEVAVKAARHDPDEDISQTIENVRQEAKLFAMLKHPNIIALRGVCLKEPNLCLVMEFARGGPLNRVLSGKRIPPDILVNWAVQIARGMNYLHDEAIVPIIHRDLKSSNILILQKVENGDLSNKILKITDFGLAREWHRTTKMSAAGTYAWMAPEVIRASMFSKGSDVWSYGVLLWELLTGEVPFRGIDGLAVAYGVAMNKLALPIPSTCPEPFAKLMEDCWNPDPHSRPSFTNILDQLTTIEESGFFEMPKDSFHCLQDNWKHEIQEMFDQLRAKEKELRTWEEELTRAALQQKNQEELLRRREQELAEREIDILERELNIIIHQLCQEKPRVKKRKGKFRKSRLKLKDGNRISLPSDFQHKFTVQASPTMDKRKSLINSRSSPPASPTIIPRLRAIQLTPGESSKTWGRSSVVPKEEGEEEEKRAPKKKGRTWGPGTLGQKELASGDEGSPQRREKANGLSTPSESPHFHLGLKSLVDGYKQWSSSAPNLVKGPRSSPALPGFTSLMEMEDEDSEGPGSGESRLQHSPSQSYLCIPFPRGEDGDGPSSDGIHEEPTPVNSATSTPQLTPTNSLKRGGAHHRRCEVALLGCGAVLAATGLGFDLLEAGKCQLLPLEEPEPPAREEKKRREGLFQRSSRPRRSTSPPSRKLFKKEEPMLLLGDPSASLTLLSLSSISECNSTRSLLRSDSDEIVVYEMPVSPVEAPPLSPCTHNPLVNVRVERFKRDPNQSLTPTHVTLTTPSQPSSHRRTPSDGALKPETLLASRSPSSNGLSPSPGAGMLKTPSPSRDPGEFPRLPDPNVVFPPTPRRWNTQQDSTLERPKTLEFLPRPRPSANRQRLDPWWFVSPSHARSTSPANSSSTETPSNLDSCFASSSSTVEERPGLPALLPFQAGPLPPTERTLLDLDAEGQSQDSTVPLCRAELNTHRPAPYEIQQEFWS
pIC50: −log10 of the molar value.
measured-quantity: pIC50

Quick check: pIC50 on MLK1 (Homo sapiens, UniProt P80192), item CC(C)C(=O)Nc1nc2cc(-c3ccc4c(c3)c(C(=O)NC(C)c3ccccc3)cn4C)ccn2n1 (stereo not shown) [RI-962] ?
< 5.00

---

- protocol-summary: Pharmacokinetics in Sprague-Dawley rats
- Type: in vivo
- condition: male, Sprague-Dawley, rat, plasma, iv, 5 mg/kg; read-out: Vss
measured-quantity: Vd
Answer with the number, then the unit.

Consider the compound CC(C)C(=O)Nc1nc2cc(-c3ccc4c(c3)c(C(=O)NC(C)c3ccccc3)cn4C)ccn2n1 (stereo not shown) and give its measured Vd.
0.4 L/kg

---

- protocol-summary: Pharmacokinetics in Sprague-Dawley rats
- Format: in vivo
- condition: male, Sprague-Dawley, rat, plasma, iv, 5 mg/kg; read-out: MRT0-∞
measured-quantity: MRT inf (min)
The reply should be a number in min, with the unit left off.

Consider the molecule CC(C)C(=O)Nc1nc2cc(-c3ccc4c(c3)c(C(=O)NC(C)c3ccccc3)cn4C)ccn2n1 (stereo not shown) and give its measured MRT inf.
24

---

- protocol-summary: Pharmacokinetics in Sprague-Dawley rats
- Format: in vivo
- condition: male, Sprague-Dawley, rat, plasma, iv, 5 mg/kg
- Method: The PK properties of compounds were examined in male Sprague-Dawley rats (n = 3 per group, weight: 180–220 g). Compounds were dissolved in saline with 5% (v/v) DMSO plus 40% (v/v) PEG400. […] Subsequently, the plasma compound concentrations were determined by LC-MS/MS-13 (TQ5500, SCIEX), and the PK parameters were calculated using Phoenix WinNonlin 7.0.
measured-quantity: AUC(0-t) (ng·h/mL)
The reply should be a number in ng·h/mL, with the unit left off.

Consider the molecule CC(C)C(=O)Nc1nc2cc(-c3ccc4c(c3)c(C(=O)NC(C)c3ccccc3)cn4C)ccn2n1 (stereo not shown) and give its measured AUC(0-t).
4530

---

- assay-system: UniProt:O43353
- Sequence (O43353 whole entry): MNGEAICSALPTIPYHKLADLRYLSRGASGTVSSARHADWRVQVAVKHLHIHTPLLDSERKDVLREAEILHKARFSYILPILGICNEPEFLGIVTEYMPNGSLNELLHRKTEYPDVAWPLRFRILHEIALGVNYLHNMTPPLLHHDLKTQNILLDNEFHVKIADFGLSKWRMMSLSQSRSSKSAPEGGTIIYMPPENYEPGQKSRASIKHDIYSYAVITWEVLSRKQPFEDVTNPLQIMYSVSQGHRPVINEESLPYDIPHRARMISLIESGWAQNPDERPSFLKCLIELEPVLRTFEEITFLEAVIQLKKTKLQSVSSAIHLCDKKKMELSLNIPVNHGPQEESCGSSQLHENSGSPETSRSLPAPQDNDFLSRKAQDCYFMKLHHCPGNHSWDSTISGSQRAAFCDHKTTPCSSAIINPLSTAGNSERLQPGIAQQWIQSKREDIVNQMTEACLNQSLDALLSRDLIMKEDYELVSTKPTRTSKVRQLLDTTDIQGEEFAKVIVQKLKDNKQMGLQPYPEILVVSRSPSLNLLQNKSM
- protocol-summary: Kinase assay (Eurofins)
- Assay type: biochemical
- condition: RIPK2
- Experimental: In vitro kinase activity assays were conducted through the Kinase Profiling Services provided by Eurofins (Eurofins, France). The protocol for the RIPK1 assay is briefly described as follows (Protocols for other kinases are very similar and can be found in http://www.eurofins.com/pharmadiscovery). RIPK1 kinase was incubated with the test compound in assay buffer containing 8 mM MOPS (pH 7.0), 0.2 mM EDTA, 250 μM […], 10 mM magnesium acetate, and 10 μM [γ-33P]-ATP for 15 min at room temperature. […]
pIC50: −log10 of the molar value.
measured-quantity: pIC50

Consider the compound CC(C)C(=O)Nc1nc2cc(-c3ccc4c(c3)c(C(=O)NC(C)c3ccccc3)cn4C)ccn2n1 (stereo not shown) [RI-962] and give its measured pIC50.
< 5.00

---

- protocol-summary: Pharmacokinetics in Sprague-Dawley rats
- Format: in vivo
- condition: male, Sprague-Dawley, rat, plasma, po, 20 mg/kg
- Method: The PK properties of compounds were examined in male Sprague-Dawley rats (n = 3 per group, weight: 180–220 g). Compounds were dissolved in saline with 5% (v/v) DMSO plus 40% (v/v) PEG400. […] Subsequently, the plasma compound concentrations were determined by LC-MS/MS-13 (TQ5500, SCIEX), and the PK parameters were calculated using Phoenix WinNonlin 7.0.
measured-quantity: AUC(0-inf) (ng·h/mL)
The reply should be a number in ng·h/mL, with the unit left off.

Consider the molecule CC(C)C(=O)Nc1nc2cc(-c3ccc4c(c3)c(C(=O)NC(C)c3ccccc3)cn4C)ccn2n1 (stereo not shown) [RI-962] and give its measured AUC(0-inf).
1600

---

- protocol-summary: Pharmacokinetics in Sprague-Dawley rats
- Assay type: in vivo
- condition: male, Sprague-Dawley, rat, plasma, ip, 20 mg/kg
measured-quantity: Cmax (ng/mL)
The reply should be a number in ng/mL, with the unit left off.

Consider the compound CC(C)C(=O)Nc1nc2cc(-c3ccc4c(c3)c(C(=O)NC(C)c3ccccc3)cn4C)ccn2n1 (stereo not shown) and give its measured Cmax.
3600

---

- protocol-summary: Pharmacokinetics in Sprague-Dawley rats
- Type: in vivo
- condition: male, Sprague-Dawley, rat, plasma, ip, 20 mg/kg
measured-quantity: AUC(0-t) (ng·h/mL)
The reply should be a number in ng·h/mL, with the unit left off.

Consider the molecule CC(C)C(=O)Nc1nc2cc(-c3ccc4c(c3)c(C(=O)NC(C)c3ccccc3)cn4C)ccn2n1 (stereo not shown) [RI-962] and give its measured AUC(0-t).
6460

---

- protocol-summary: Pharmacokinetics in Sprague-Dawley rats
- Type: in vivo
- condition: male, Sprague-Dawley, rat, plasma, oral, 20 mg/kg, Supplementary Figure 7 panel b; 8 h; animals 1-3; read-out: Plasma Concentraion
measured-quantity: concentration at 8 h
Answer with the number, then the unit.

Consider the compound CC(C)C(=O)Nc1nc2cc(-c3ccc4c(c3)c(C(=O)NC(C)c3ccccc3)cn4C)ccn2n1 (stereo not shown) [RI-962] and give its measured concentration at 8 h.
7.91 ng/mL

---

- protocol-summary: Pharmacokinetics in Sprague-Dawley rats
- Format: in vivo
- condition: male, Sprague-Dawley, rat, plasma, intravenous, 5 mg/kg, Supplementary Figure 7 panel a; 8 h; animals 1-3; read-out: Plasma Concentraion
- Procedure: The PK properties of compounds were examined in male Sprague-Dawley rats (n = 3 per group, weight: 180–220 g). Compounds were dissolved in saline with 5% (v/v) DMSO plus 40% (v/v) PEG400. […] Subsequently, the plasma compound concentrations were determined by LC-MS/MS-13 (TQ5500, SCIEX), and the PK parameters were calculated using Phoenix WinNonlin 7.0.
measured-quantity: concentration at 8 h (ng/mL)
The reply should be a number in ng/mL, with the unit left off.

Consider the compound CC(C)C(=O)Nc1nc2cc(-c3ccc4c(c3)c(C(=O)NC(C)c3ccccc3)cn4C)ccn2n1 (stereo not shown) [RI-962] and give its measured concentration at 8 h.
6.4

---

- protocol-summary: Pharmacokinetics in Sprague-Dawley rats
- Assay type: in vivo
- condition: male, Sprague-Dawley, rat, plasma, po, 20 mg/kg
measured-quantity: AUC(0-t) (ng·h/mL)
The reply should be a number in ng·h/mL, with the unit left off.

Consider the molecule CC(C)C(=O)Nc1nc2cc(-c3ccc4c(c3)c(C(=O)NC(C)c3ccccc3)cn4C)ccn2n1 (stereo not shown) and give its measured AUC(0-t).
1590

---

- assay-system: MLK3 (Homo sapiens, UniProt Q16584)
- Sequence (Q16584 whole entry): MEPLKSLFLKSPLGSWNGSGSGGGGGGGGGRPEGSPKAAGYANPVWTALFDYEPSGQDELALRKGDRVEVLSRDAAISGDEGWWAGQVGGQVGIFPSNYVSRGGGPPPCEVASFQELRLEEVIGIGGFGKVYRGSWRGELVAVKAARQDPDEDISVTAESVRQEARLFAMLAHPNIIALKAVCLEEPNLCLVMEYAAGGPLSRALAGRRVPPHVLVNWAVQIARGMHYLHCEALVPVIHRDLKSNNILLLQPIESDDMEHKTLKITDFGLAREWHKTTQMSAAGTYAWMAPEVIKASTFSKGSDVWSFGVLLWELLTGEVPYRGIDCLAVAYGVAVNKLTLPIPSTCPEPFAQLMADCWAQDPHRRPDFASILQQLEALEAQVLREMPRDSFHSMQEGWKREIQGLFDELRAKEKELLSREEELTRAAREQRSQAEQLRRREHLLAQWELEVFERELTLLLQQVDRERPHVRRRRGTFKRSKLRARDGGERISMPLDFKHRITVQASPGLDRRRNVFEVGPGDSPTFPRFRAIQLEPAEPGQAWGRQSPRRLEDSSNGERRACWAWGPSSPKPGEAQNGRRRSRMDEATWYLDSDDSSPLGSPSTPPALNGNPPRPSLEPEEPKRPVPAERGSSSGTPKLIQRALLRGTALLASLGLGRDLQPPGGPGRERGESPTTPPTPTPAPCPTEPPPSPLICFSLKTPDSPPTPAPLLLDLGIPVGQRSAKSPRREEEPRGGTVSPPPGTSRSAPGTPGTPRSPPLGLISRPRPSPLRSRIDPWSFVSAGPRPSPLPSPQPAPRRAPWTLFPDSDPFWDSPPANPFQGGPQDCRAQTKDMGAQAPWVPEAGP
measured-quantity: IC50 (µM)
The reply should be a number in µM, with the unit left off.

Consider the compound CC(C)C(=O)Nc1nc2cc(-c3ccc4c(c3)c(C(=O)NC(C)c3ccccc3)cn4C)ccn2n1 (stereo not shown) and give its measured IC50.
3.75

---

- protocol-summary: Pharmacokinetics in Sprague-Dawley rats
- Format: in vivo
- condition: male, Sprague-Dawley, rat, plasma, intravenous, 5 mg/kg, Supplementary Figure 7 panel a; 4 h; animals 1-3; read-out: Plasma Concentraion
measured-quantity: concentration at 4 h (ng/mL)
The reply should be a number in ng/mL, with the unit left off.

Consider the compound CC(C)C(=O)Nc1nc2cc(-c3ccc4c(c3)c(C(=O)NC(C)c3ccccc3)cn4C)ccn2n1 (stereo not shown) and give its measured concentration at 4 h.
20.6

Reference for the values: paper PMC9653409
